Hi! Could you tag entries with melting point below 200 °C as Condition met, and those at or above as Condition not met? Much appreciated.

{"molecule": "CC(=O)CN1CCC(CCN2CCN(c3ccccc3C#N)CC2)CC1.Cl.Cl", "assignedLabel": "Condition not met"}
{"molecule": "CC(=O)CN1CCC(CCN2CCN(c3cc(C)cc(C)c3)CC2)CC1.Cl.Cl", "assignedLabel": "Condition not met"}
{"molecule": "COCC(=O)N[C@H]1CC[C@H](CCN2CCN(c3cc(F)c(F)c(F)c3)CC2)CC1", "assignedLabel": "Condition met"}
{"molecule": "COCCCC(=O)N[C@H]1CC[C@H](CCN2CCN(c3cccc(C(F)(F)F)c3C)CC2)CC1", "assignedLabel": "Condition met"}
{"molecule": "Cl.N#CCC(=O)N1CCC(CCN2CCN(c3cccc(C(F)(F)F)c3)CC2)CC1", "assignedLabel": "Condition met"}
{"molecule": "CCOCC(=O)N[C@H]1CC[C@H](CCN2CCN(c3ccc(Cl)cc3)CC2)CC1", "assignedLabel": "Condition met"}
{"molecule": "N#CCC(=O)N[C@H]1CC[C@H](CCN2CCN(c3ccc(Cl)c(Cl)c3Cl)CC2)CC1", "assignedLabel": "Condition not met"}
{"molecule": "CC(C)(C)c1nc(N2CCN(CC[C@H]3CC[C@H](NC(=O)CCC#N)CC3)CC2)cc(C(F)(F)F)n1", "assignedLabel": "Condition met"}

###

Here, each record is paired with measured melting point data.
measuredAttribute: melting point (°C)

{"compound": "CC(=O)CCC(=O)N[C@H]1CC[C@H](CCN2CCN(c3cccc(C(F)(F)F)c3F)CC2)CC1 [Example 231]", "u": "°C", "quantitativeReadout": 178}
{"compound": "COc1ccc(C(C)(C)C)cc1N1CCN(CC[C@H]2CC[C@H](NC(=O)CC#N)CC2)CC1 [Example 197]", "u": "°C", "quantitativeReadout": 163}
{"compound": "N#Cc1cccc(N2CCN(CC[C@H]3CC[C@H](NC(=O)CCC(F)(F)F)CC3)CC2)c1 [Example 653]", "u": "°C", "quantitativeReadout": 176}
{"compound": "CC(=O)CN1CCC(CCN2CCN(c3ccc(F)c(Cl)c3F)CC2)CC1 [Example 623]", "u": "°C", "quantitativeReadout": 82}
{"compound": "COc1ccccc1N1CCN(CC[C@H]2CC[C@H](NC(=O)CC#N)CC2)CC1 [Example 124]", "u": "°C", "quantitativeReadout": 187}
{"compound": "Cl.NC(=O)CCC(=O)N1CCC(CCN2CCN(c3cccc4c3CCC4)CC2)CC1", "u": "°C", "quantitativeReadout": 137}
{"compound": "N#CCC(=O)N[C@H]1CC[C@H](CCN2CCN(c3ccc(F)c(Cl)c3)CC2)CC1 [Example 594]", "u": "°C", "quantitativeReadout": 176}
{"compound": "CCOCC(=O)N[C@H]1CC[C@H](CCN2CCN(c3cc(C)c(F)cc3Cl)CC2)CC1 [Example 579]", "u": "°C", "quantitativeReadout": 132}

###

Hi! Could you tag entries with melting point below 100 °C as T, and those at or above as F? Much appreciated.

{"compound": "N#CCCCC(=O)N[C@H]1CC[C@H](CCN2CCN(c3cccc4cccnc34)CC2)CC1", "assignedLabel": "F"}
{"compound": "N#CCC(=O)N[C@H]1CC[C@H](CCN2CCN(c3ccc(Cl)c(Cl)c3)CC2)CC1", "assignedLabel": "F"}
{"compound": "COCCCC(=O)N[C@H]1CC[C@H](CCN2CCN(c3cc(C)c(F)cc3Cl)CC2)CC1", "assignedLabel": "F"}
{"compound": "CC(=O)CN1CCC(CCN2CCN(c3cccc4c3OCCCO4)CC2)CC1.Cl.Cl", "assignedLabel": "F"}
{"compound": "O=C(COc1ccc(F)cc1)N[C@H]1CC[C@H](CCN2CCN(c3cccc(C(F)(F)F)c3)CC2)CC1", "assignedLabel": "F"}
{"compound": "COCC(=O)N[C@H]1CC[C@H](CCN2CCN(c3ccc(Cl)c(Cl)c3F)CC2)CC1", "assignedLabel": "F"}
{"compound": "CCC(=O)CN1CCC(CCN2CCN(c3cccc(Cl)c3Cl)CC2)CC1", "assignedLabel": "T"}
{"compound": "CSc1ccccc1N1CCN(CC[C@H]2CC[C@H](NC(=O)CC#N)CC2)CC1", "assignedLabel": "F"}
{"compound": "Cc1ccc(N2CCN(CC[C@H]3CC[C@H](NC(=O)CC#N)CC3)CC2)cc1F", "assignedLabel": "F"}
{"compound": "CCOC(=O)Nc1cccc(N2CCN(CC[C@H]3CC[C@H](NC(=O)CC#N)CC3)CC2)c1", "assignedLabel": "F"}
{"compound": "N#CCCCC(=O)N[C@H]1CC[C@H](CCN2CCN(c3ccc(F)c(C#N)c3)CC2)CC1", "assignedLabel": "F"}
{"compound": "COc1ccc(Cl)c(N2CCN(CC[C@H]3CC[C@H](NC(=O)CC#N)CC3)CC2)c1", "assignedLabel": "F"}
{"compound": "CCN(CC)CCC(=O)N[C@H]1CC[C@H](CCN2CCN(c3cccc(C(F)(F)F)c3)CC2)CC1", "assignedLabel": "T"}
{"compound": "O=C(C=C1CCC(CCN2CCN(c3ccccc3F)CC2)CC1)NCC(F)(F)F (centres unmarked)", "assignedLabel": "F"}
{"compound": "CC(=O)CN1CCC(CCN2CC=C(c3cccc(C#N)c3)CC2)CC1", "assignedLabel": "T"}
{"compound": "N#CCCCC(=O)N[C@H]1CC[C@H](CCN2CCN(c3cccc(C#N)c3)CC2)CC1", "assignedLabel": "F"}
{"compound": "COCCCC(=O)N[C@H]1CC[C@H](CCN2CCN(c3ccc(F)cc3F)CC2)CC1", "assignedLabel": "F"}

Data origin: patent US8802678B2
